- Assayed Target: T1, Recombinant, purified TRBC1 (soluble αβ TCR with the β-chain constant domain TRBC1), SPR analyte (Homo sapiens, HA1.7 TCR with TRBC1)
- T1 construct: also called human TRBC1; recombinant TRBC1; source: recombinant, purified
- Procedure Text: SPR; Biacore T200; antibody as human IgG1 captured with an anti-human capture kit on CM5 to 200 RU; TRBC1 or TRBC2 as analyte, 150 s contact, 300 s dissociation, 30 μl/min, 25 °C, HBS-P+ pH 7.4; 1:1 Langmuir model
- Condition Details: both partners purified
Measurement Name: koff (s⁻¹)
Give the value, in units of s⁻¹, as a plain number.

Solved entries:
// returns reported koff for input RFN (Mut4; HuJovi-1 VH T28R, Y32F, A96N), human IgG1 (antibody, V domains shown, as the VH of m1 with the stated changes; positions in Kabat numbering; constant region of the human IgG1 heavy chain; as the light chain of m1; IgG1 in the SPR; also called Arg28/Phe32/Asn96; source: ExpiCHO, transient transfection, purified (MabSelect SuRe)) VH: QVQLVQSGAEVKKPGASVKVSCKASGYRFTGFVMHWVRQAPGQGLEWMGFINPYNDDIQSNERFRGRVTMTRDTSISTAYMELSRLRSDDTAVYYCARGNGYNFDGAYRFFDFWGQGTMVTVSS VL: DIVMTQSPLSLPVTPGEPASISCRSSQRLVHSNGNTYLHWYLQKPGQSPRLLIYRVSNRFPGVPDRFSGSGSGTDFTLKISRVEAEDVGVYYCSQSTHVPYTFGQGTKLEIK
0.125

// returns reported koff for input Mut5 (HuJovi-1 VH Y32F), human IgG1 (antibody, V domains shown, as the VH of m1 with the stated change; positions in Kabat numbering; constant region of the human IgG1 heavy chain; as the light chain of m1; IgG1; source: ExpiCHO, transient transfection, purified (MabSelect SuRe)) VH: QVQLVQSGAEVKKPGASVKVSCKASGYTFTGFVMHWVRQAPGQGLEWMGFINPYNDDIQSNERFRGRVTMTRDTSISTAYMELSRLRSDDTAVYYCARGAGYNFDGAYRFFDFWGQGTMVTVSS VL: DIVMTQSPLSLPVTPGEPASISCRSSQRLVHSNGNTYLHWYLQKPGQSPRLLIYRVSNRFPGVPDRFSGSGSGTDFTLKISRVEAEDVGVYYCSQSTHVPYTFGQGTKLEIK
0.0457

// returns reported koff for input Mut2 (HuJovi-1 VH T28K, Y32F), human IgG1 (antibody, V domains shown, as the VH of m1 with the stated changes; positions in Kabat numbering; constant region of the human IgG1 heavy chain; as the light chain of m1; IgG1; also called Lys28/Phe32; Thr28Lys, Tyr32Phe double mutant; source: ExpiCHO, transient transfection, purified (MabSelect SuRe)) VH: QVQLVQSGAEVKKPGASVKVSCKASGYKFTGFVMHWVRQAPGQGLEWMGFINPYNDDIQSNERFRGRVTMTRDTSISTAYMELSRLRSDDTAVYYCARGAGYNFDGAYRFFDFWGQGTMVTVSS VL: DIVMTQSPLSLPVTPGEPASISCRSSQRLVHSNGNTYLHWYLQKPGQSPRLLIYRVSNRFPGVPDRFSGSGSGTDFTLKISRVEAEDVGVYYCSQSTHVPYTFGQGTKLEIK
0.0689

// returns reported koff for input HuJovi-1 (humanized Jovi-1), human IgG1 (antibody, V domains shown, VH of HuJovi-1 (CDRs of Jovi-1 grafted on IGHV1-2*02); constant region of the human IgG1 heavy chain; whole light chain (CDRs of Jovi-1 grafted on IGKV2-29*02, kappa constant from the AbVec kappa vector); IgG1; The section on CDR grafting names HEK293T as host, the section on antibody expression ExpiCHO; also called aTRBC1; source: ExpiCHO, transient transfection, purified (MabSelect SuRe)) VH: QVQLVQSGAEVKKPGASVKVSCKASGYTFTGYVMHWVRQAPGQGLEWMGFINPYNDDIQSNERFRGRVTMTRDTSISTAYMELSRLRSDDTAVYYCARGAGYNFDGAYRFFDFWGQGTMVTVSS VL: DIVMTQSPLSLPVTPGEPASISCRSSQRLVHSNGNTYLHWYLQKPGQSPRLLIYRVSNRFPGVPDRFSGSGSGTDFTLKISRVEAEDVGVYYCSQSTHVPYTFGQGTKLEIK
0.000618

// returns reported koff for input Mut6 (HuJovi-1 VH A96N), human IgG1 (antibody, V domains shown, as the VH of m1 with the stated change; positions in Kabat numbering; constant region of the human IgG1 heavy chain; as the light chain of m1; IgG1; source: ExpiCHO, transient transfection, purified (MabSelect SuRe)) VH: QVQLVQSGAEVKKPGASVKVSCKASGYTFTGYVMHWVRQAPGQGLEWMGFINPYNDDIQSNERFRGRVTMTRDTSISTAYMELSRLRSDDTAVYYCARGNGYNFDGAYRFFDFWGQGTMVTVSS VL: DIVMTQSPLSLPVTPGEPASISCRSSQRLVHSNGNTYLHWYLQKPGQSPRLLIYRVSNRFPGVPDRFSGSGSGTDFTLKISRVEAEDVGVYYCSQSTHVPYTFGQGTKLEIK
0.00197

***
// returns reported koff for input Mut1 (HuJovi-1 VH T28K), human IgG1 (antibody, V domains shown, as the VH of m1 with the stated change; positions in Kabat numbering; constant region of the human IgG1 heavy chain; as the light chain of m1; IgG1; also called Lys28 mutant; Thr28Lys; source: ExpiCHO, transient transfection, purified (MabSelect SuRe)) VH: QVQLVQSGAEVKKPGASVKVSCKASGYKFTGYVMHWVRQAPGQGLEWMGFINPYNDDIQSNERFRGRVTMTRDTSISTAYMELSRLRSDDTAVYYCARGAGYNFDGAYRFFDFWGQGTMVTVSS VL: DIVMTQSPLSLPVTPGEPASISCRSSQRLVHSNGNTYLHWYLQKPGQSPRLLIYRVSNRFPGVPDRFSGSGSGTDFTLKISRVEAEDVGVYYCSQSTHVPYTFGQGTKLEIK
0.001

// returns reported koff for input Mut7 (HuJovi-1 VH T28K, A96N), human IgG1 (antibody, V domains shown, as the VH of m1 with the stated changes; positions in Kabat numbering; constant region of the human IgG1 heavy chain; as the light chain of m1; IgG1; source: ExpiCHO, transient transfection, purified (MabSelect SuRe)) VH: QVQLVQSGAEVKKPGASVKVSCKASGYKFTGYVMHWVRQAPGQGLEWMGFINPYNDDIQSNERFRGRVTMTRDTSISTAYMELSRLRSDDTAVYYCARGNGYNFDGAYRFFDFWGQGTMVTVSS VL: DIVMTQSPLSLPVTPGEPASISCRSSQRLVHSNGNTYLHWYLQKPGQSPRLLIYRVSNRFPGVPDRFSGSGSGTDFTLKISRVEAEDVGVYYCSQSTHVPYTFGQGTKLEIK
0.00524
